Listed here: items and their measured pIC50.
Test system: P. falciparum stage V male gametocytes (male gamete formation)
Procedure summary: P. falciparum dual gamete formation assay (Pf DGFA), male readout (exflagellation), 48 h carry-over format
Type: cell-based, Plasmodium falciparum NF54
Measurement parameters: Plasmodium falciparum, SAR, Fig. 6 and Fig. 7; read-out: Male IC50
// scale note: pIC50 = -log10(conc_M); give the bare number

Req: Fill in: pIC50 of "Cc1cc(Br)ccc1NC(=O)CCl" is ___
Resp: 5.32

Req: Fill in: pIC50 of O=S(=O)(NCC1(O)CCOc2ccccc21)c1ccccc1F (stereo not drawn) is ___
Resp: 6.47

Req: Fill in: pIC50 of "Cc1cc(Cl)ccc1NC(=O)CCl" is ___
Resp: 5.23

Req: Fill in: pIC50 of "O=C(CCl)N1CCc2ccccc21" is ___
Resp: 5.79

Req: Fill in: pIC50 of "CC(C)c1cc(Br)ccc1NC(=O)CCl" is ___
Resp: 4.92

====

Listed here: items and their measured pIC50.
System: P. falciparum stage V male gametocytes (male gamete formation)
Procedure summary: P. falciparum dual gamete formation assay (Pf DGFA), male readout (exflagellation), 48 h carry-over format
Assay type: cell-based, Plasmodium falciparum NF54
Measurement parameters: Plasmodium falciparum, 48h preincubation/carry-over; read-out: Pf DGFA Male IC50
// scale note: pIC50 = -log10(conc_M); give the bare number

{"Compound": "O=S(=O)(NCC1(O)CCOc2ccccc21)c1cccs1 (centres unmarked)", "pIC50": 5.78}

Req: Observed pIC50 on P. falciparum stage V male gametocytes (male gamete formation) for "CC(C)CN1CCn2nc(CNc3ncnc4[nH]ccc34)cc2C1" , please.
Resp: 5.78

Req: Observed pIC50 on P. falciparum stage V male gametocytes (male gamete formation) for O=S(=O)(NCC1(O)CCOc2ccccc21)c1ccc(Cl)s1 (centres unmarked) , please.
Resp: 5.83

Req: Observed pIC50 on P. falciparum stage V male gametocytes (male gamete formation) for "CCOc1ccc2ccccc2c1CNCC1CCNCC1.Cl.Cl" , please.
Resp: 6.39

Req: Observed pIC50 on P. falciparum stage V male gametocytes (male gamete formation) for Cc1ccc(S(=O)(=O)NCC2(O)CCOc3ccccc32)s1 (centres unmarked) , please.
Resp: 6.31

Req: Observed pIC50 on P. falciparum stage V male gametocytes (male gamete formation) for O=S(=O)(NCC1(O)CCOc2ccccc21)c1ccccc1Br (centres unmarked) , please.
Resp: 6.14

Req: Observed pIC50 on P. falciparum stage V male gametocytes (male gamete formation) for CC(c1ccco1)N(C(=O)CNc1ccc(C#N)cc1)C1CC1 (centres unmarked) , please.
Resp: 5.68

====

Test system: P. falciparum 3D7 asexual blood stages
Procedure summary: Whole-cell time extended asexual growth assay (pLDH)
Assay type: cell-based
Measurement parameters: Plasmodium falciparum, compound resynthesised at GSK, read-out: IC50 against asexuals
Attribute measured: IC50

Req: Fill in: IC50 of "CC(=O)c1c(C)nn(CC(=O)Nc2ccc(Br)cc2)c1C" is ___
Resp: > 50 µM

====

Procedure summary: Stability analysis of DDD599/BPCA (pH buffers, simulated gastric fluid, glutathione)
Type: physicochemical
Measurement parameters: Britton Robinson pH6 buffer, pH 6
Attribute measured: remaining at 24 h (%)
# unit: % | format: bare number

Req: Fill in: remaining at 24 h of O=C(CCl)Nc1ccc(Br)cc1 [BPCA, N-(4-bromophenyl)-2-chloroacetamide] is ___
Resp: 100

====

Procedure summary: Stability analysis of DDD599/BPCA (pH buffers, simulated gastric fluid, glutathione)
Assay type: physicochemical
Measurement parameters: pH 7.4; GSH = Phosphate buffer pH7.4 with 5mM Glutathione
Attribute measured: half-life

Req: Fill in: half-life of O=C(CCl)Nc1ccc(Br)cc1 [BPCA, N-(4-bromophenyl)-2-chloroacetamide] is ___
Resp: < 1 h

====

Procedure summary: Stability analysis of DDD599/BPCA (pH buffers, simulated gastric fluid, glutathione)
Type: physicochemical
Measurement parameters: Phosphate buffer pH7.4 with 5mM Glutathione, pH 7.4; GSH
Attribute measured: remaining at 24 h (%)
# unit: % | format: bare number

Req: Fill in: remaining at 24 h of O=C(CCl)Nc1ccc(Br)cc1 [BPCA, N-(4-bromophenyl)-2-chloroacetamide] is ___
Resp: 0

====

Procedure summary: Stability analysis of DDD599/BPCA (pH buffers, simulated gastric fluid, glutathione)
Assay type: physicochemical
Measurement parameters: Britton Robinson pH10 buffer, pH 10
Attribute measured: remaining at 24 h (%)
# unit: % | format: bare number

Req: Fill in: remaining at 24 h of O=C(CCl)Nc1ccc(Br)cc1 [BPCA, N-(4-bromophenyl)-2-chloroacetamide] is ___
Resp: 87

====

Procedure summary: Stability analysis of DDD599/BPCA (pH buffers, simulated gastric fluid, glutathione)
Format: physicochemical
Measurement parameters: Britton Robinson pH10 buffer + 20M% H2O2, pH 10; pH10 Ox
Attribute measured: remaining at 24 h (%)
# unit: % | format: bare number

Req: Fill in: remaining at 24 h of O=C(CCl)Nc1ccc(Br)cc1 [BPCA, N-(4-bromophenyl)-2-chloroacetamide] is ___
Resp: 87

====

System: P. falciparum stage V male gametocytes (male gamete formation)
Procedure summary: P. falciparum dual gamete formation assay (Pf DGFA), male readout (exflagellation), 48 h carry-over format
Format: cell-based, Plasmodium falciparum NF54
Measurement parameters: Plasmodium falciparum, SAR, Fig. 6 and Fig. 7; read-out: Male IC50
Attribute measured: IC50 (µM)
# unit: µM | format: bare number

Some solved entries appear below for comparison.
{"Compound": "O=C(CCl)Nc1ccc(CO)cc1 [compound 22457525]", "IC50 / µM": 2.08}
{"Compound": "O=C(CCl)Nc1ccc(Br)cc1 [BPCA, N-(4-bromophenyl)-2-chloroacetamide]", "IC50 / µM": 1.42}
{"Compound": "O=S(=O)(NCC1(O)CCOc2ccccc21)c1cccs1 (stereo not shown) [DDD01035879]", "IC50 / µM": 0.28}

Req: Observed IC50 on P. falciparum stage V male gametocytes (male gamete formation) for CN(C(=O)CCl)c1ccccc1 [compound 75797] , please.
Resp: 6.41

Req: Observed IC50 on P. falciparum stage V male gametocytes (male gamete formation) for O=C(CCl)Nc1ccccc1 [compound 11485] , please.
Resp: 2.41

====

System tested: recombinant luciferase (Photinus pyralis) (Photinus pyralis, UniProt P08659)
Construct: purchased Promega E1701
Sequence (P08659 whole entry): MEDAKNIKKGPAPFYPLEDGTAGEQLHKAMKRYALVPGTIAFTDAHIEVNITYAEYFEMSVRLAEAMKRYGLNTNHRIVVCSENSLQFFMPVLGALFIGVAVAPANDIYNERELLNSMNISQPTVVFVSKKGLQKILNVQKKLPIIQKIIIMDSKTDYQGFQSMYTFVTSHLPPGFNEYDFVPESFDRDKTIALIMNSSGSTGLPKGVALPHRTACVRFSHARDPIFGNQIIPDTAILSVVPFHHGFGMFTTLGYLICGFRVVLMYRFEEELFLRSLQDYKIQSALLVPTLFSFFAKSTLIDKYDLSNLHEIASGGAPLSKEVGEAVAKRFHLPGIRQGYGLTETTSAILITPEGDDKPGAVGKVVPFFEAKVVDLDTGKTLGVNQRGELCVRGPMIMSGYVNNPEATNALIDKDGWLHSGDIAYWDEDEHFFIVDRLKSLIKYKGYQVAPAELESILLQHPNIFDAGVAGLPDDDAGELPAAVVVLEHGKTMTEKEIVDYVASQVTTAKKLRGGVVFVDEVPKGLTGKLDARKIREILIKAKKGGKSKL
Procedure summary: Recombinant luciferase inhibition assay
Assay type: biochemical
pIC50: −log10 of the molar value.
Attribute measured: pIC50

Req: Fill in: pIC50 of Cc1cc(C)c(CNCC(O)c2ccc(F)c(F)c2)c(C)c1.Cl (stereo not shown) [DDD01065539] is ___
Resp: < 4.30

====

Procedure summary: Stability analysis of DDD599/BPCA (pH buffers, simulated gastric fluid, glutathione)
Format: physicochemical
Measurement parameters: Britton Robinson pH4 buffer + 20M% H2O2, pH 4; pH4 Ox
Attribute measured: remaining at 24 h
# include the unit after the value

Req: Fill in: remaining at 24 h of O=C(CCl)Nc1ccc(Br)cc1 [BPCA, N-(4-bromophenyl)-2-chloroacetamide] is ___
Resp: 100%

====

Procedure summary: Stability analysis of DDD599/BPCA (pH buffers, simulated gastric fluid, glutathione)
Format: physicochemical
Measurement parameters: SGF Ox = Simulated Gastric Fluid + 20M% H2O2
Attribute measured: half-life

Req: Fill in: half-life of O=C(CCl)Nc1ccc(Br)cc1 [BPCA, N-(4-bromophenyl)-2-chloroacetamide] is ___
Resp: > 41.7 days

====

Procedure summary: Stability analysis of DDD599/BPCA (pH buffers, simulated gastric fluid, glutathione)
Type: physicochemical
Measurement parameters: pH 10; pH10 = Britton Robinson pH10 buffer
Attribute measured: half-life (h)
# unit: h | format: bare number

Req: Fill in: half-life of O=C(CCl)Nc1ccc(Br)cc1 [BPCA, N-(4-bromophenyl)-2-chloroacetamide] is ___
Resp: 94

====

Procedure summary: Stability analysis of DDD599/BPCA (pH buffers, simulated gastric fluid, glutathione)
Format: physicochemical
Measurement parameters: Simulated Gastric Fluid + 20M% H2O2; SGF Ox
Attribute measured: remaining at 24 h (%)
# unit: % | format: bare number

Req: Fill in: remaining at 24 h of O=C(CCl)Nc1ccc(Br)cc1 [BPCA, N-(4-bromophenyl)-2-chloroacetamide] is ___
Resp: 99

====

System: P. falciparum stage V male gametocytes (male gamete formation)
Procedure summary: P. falciparum dual gamete formation assay (Pf DGFA), male readout (exflagellation), 48 h carry-over format
Assay type: cell-based, Plasmodium falciparum NF54
Measurement parameters: Plasmodium falciparum, 48h preincubation/carry-over; read-out: Pf DGFA Male IC50
Attribute measured: IC50

{"Compound": "CC(c1cccs1)N(C)Cc1cnc(-c2ccccn2)nc1 (centres unmarked)", "IC50": "1170 nM"}
{"Compound": "O=S(=O)(NCC1(O)CCOc2ccccc21)c1ccccc1F (centres unmarked)", "IC50": "240 nM"}
{"Compound": "Cc1nn(C)c(Oc2ccc(Cl)cc2)c1CN1CCC(CN)C1 (centres unmarked)", "IC50": "2250 nM"}
{"Compound": "CCCn1nccc1C(=O)N1CCN(C2CCc3ccccc3C2)CC1 (centres unmarked)", "IC50": "> 12500 nM"}

Attention now turns to another entry.
Req: Observed IC50 on P. falciparum stage V male gametocytes (male gamete formation) for CCc1ccc(C2c3nc[nH]c3CCN2Cc2nccn2CC)nc1 (centres unmarked) , please.
Resp: 3960 nM
